Target: 5-hydroxytryptamine receptor 2A (Homo sapiens, UniProt P28223); further: assay procedure not described here
Sequence (P28223 whole entry): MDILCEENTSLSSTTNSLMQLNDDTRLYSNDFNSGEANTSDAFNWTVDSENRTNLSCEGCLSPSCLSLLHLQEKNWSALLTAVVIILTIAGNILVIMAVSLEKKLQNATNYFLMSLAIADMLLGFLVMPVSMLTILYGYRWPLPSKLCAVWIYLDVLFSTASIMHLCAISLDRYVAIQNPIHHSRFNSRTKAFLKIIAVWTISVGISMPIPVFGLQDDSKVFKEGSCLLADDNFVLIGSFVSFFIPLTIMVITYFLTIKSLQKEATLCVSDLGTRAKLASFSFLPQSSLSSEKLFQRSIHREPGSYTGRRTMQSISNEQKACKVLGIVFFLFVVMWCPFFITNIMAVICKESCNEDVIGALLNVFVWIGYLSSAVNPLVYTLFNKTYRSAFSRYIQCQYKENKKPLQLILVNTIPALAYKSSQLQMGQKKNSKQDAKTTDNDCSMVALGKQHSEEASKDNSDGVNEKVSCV
Type: functional, cell-based
Reported AC50 values follow for various compounds
outcomeMeasure: AC50

compound: C1COC(NC(C2CC2)C2CC2)=N1 [RILMENIDINE]
outcomeMeasure: AC50
measured: > 30 µM
//
compound: COC(=O)C1=C(C)NC(C)=C(C(=O)OC(C)C)C1c1cccc2nonc12 (centres undefined) [ISRADIPINE]
outcomeMeasure: AC50
measured: > 10 µM
//
compound: CC(C)NCC(O)COc1ccc(COCCOC(C)C)cc1 (centres undefined) [BISOPROLOL]
outcomeMeasure: AC50
measured: > 30 µM
//
compound: CC(C)C(=O)OCC(=O)[C@@]12O[C@H](C3CCCCC3)O[C@@H]1C[C@H]1[C@@H]3CCC4=CC(=O)C=C[C@]4(C)[C@H]3[C@@H](O)C[C@@]12C [CICLESONIDE]
outcomeMeasure: AC50
measured: > 10 µM
//
compound: C[N+](C)(C)CC(=O)O [BETAINE]
outcomeMeasure: AC50
measured: > 30 µM
//
compound: CCCCCN(C)CCC(O)(P(=O)(O)O)P(=O)(O)O [IBANDRONIC ACID]
outcomeMeasure: AC50
measured: > 30 µM
//
compound: CC(C)[N+](C)(CCC(C(N)=O)(c1ccccc1)c1ccccc1)C(C)C [ISOPROPAMIDE]
outcomeMeasure: AC50
measured: > 10 µM
//
compound: NS(=O)(=O)c1cc(-c2nnn[nH]2)c(NCc2cccs2)cc1Cl [AZOSEMIDE]
outcomeMeasure: AC50
measured: > 30 µM
//
compound: C#CCN[C@@H]1CCc2ccccc21 [RASAGILINE]
outcomeMeasure: AC50
measured: > 30 µM
